assay: gradient 5% acetonitrile 3 min, to 50% in 2 min, to 85% in 15 min, held 3 min, 100 µL/min; conditions: column: Zorbax Extend-C18 2.1 x 50 mm; eluents: water / acetonitrile, 0.1% formic acid
Rule: RP-LC retention time below 900 s gives TRUE, anything at or above gives FALSE.

stdin: I wonder whether Cc1cc(C)cc(Oc2nccn3c(=O)n(CC(=O)Nc4ccccc4Cl)nc23)c1 has RP-LC retention time below 900 s. Can you tell?
stdout: FALSE

stdin: I wonder whether CC(C)NC(=O)N1CCCC(c2cccc(C(=O)NCCC3=CCCCC3)c2)C1 (stereo not given) has RP-LC retention time below 900 s. Can you tell?
stdout: FALSE

stdin: I wonder whether COc1ccccc1NC(=O)CC(=O)Nc1ccc2nc3n(c(=O)c2c1)CCCCC3 has RP-LC retention time below 900 s. Can you tell?
stdout: TRUE

stdin: I wonder whether CC1CC(=O)c2cn3ncnc3nc2C1 (stereo not given) has RP-LC retention time below 900 s. Can you tell?
stdout: TRUE

stdin: I wonder whether CC1CCN(C(=O)c2cc(S(=O)(=O)N(C)CC(=O)N3CCN(c4ccccc4)CC3)c[nH]2)CC1 has RP-LC retention time below 900 s. Can you tell?
stdout: TRUE

Source: the METLIN SMRT retention time set (Domingo-Almenara et al. 2019)
